Values were extracted from the supplement of paper PMC10307832.

System: NCI-H23
protocol description: relative viability (nuclei count vs DMSO), 5 days (fraction); higher = more cells survive
conditions: first compound 0.04 µM
Threshold 0.8: relative viability strictly smaller gives True, otherwise False.

molecule="O=C(O)c1ccc(-c2c[nH]c3ncc(-c4ccccc4)cc23)cc1C1CCCC1 + COc1cccc2cc(-c3nc([C@H]4CC[C@H](C(=O)O)CC4)n4ncnc(N)c34)[nH]c12 [OSI-027] (partner 0.5 µM)" test_target=NCI-H23 assigned_label=True
molecule="O=C(O)c1ccc(-c2c[nH]c3ncc(-c4ccccc4)cc23)cc1C1CCCC1 + CS(=O)(=O)CCNCc1ccc(-c2ccc3ncnc(Nc4ccc(OCc5cccc(F)c5)c(Cl)c4)c3c2)o1 [Lapatinib] (partner 2 µM)" test_target=NCI-H23 assigned_label=False
molecule="O=C(O)c1ccc(-c2c[nH]c3ncc(-c4ccccc4)cc23)cc1C1CCCC1 + C[C@@H](Oc1cc(-c2cnn(C3CCNCC3)c2)cnc1N)c1c(Cl)ccc(F)c1Cl [Crizotinib] (partner 1 µM)" test_target=NCI-H23 assigned_label=True
molecule="O=C(O)c1ccc(-c2c[nH]c3ncc(-c4ccccc4)cc23)cc1C1CCCC1 + COc1cc2c(Oc3ccc(NC(=O)C4(C(=O)Nc5ccc(F)cc5)CC4)cc3F)ccnc2cc1OCCCN1CCOCC1 [Foretinib] (partner 0.25 µM)" test_target=NCI-H23 assigned_label=False

----------
Test system: NCI-H1993
protocol description: relative viability (nuclei count vs DMSO), 5 days (fraction); higher = more cells survive
conditions: first compound 0.05 µM
Measured relative viability by item
endpoint label: relative viability

compound="CC1(C)CCC(c2ccc(Cl)cc2)=C(CN2CCN(c3ccc(C(=O)NS(=O)(=O)c4ccc(N[C@H](CCN5CCOCC5)CSc5ccccc5)c(S(=O)(=O)C(F)(F)F)c4)cc3)CC2)C1 [Navitoclax] + CC(=O)c1c(C)c2cnc(Nc3ccc(N4CCNCC4)cn3)nc2n(C2CCCC2)c1=O [Palbociclib] (partner 0.5 µM)" endpoint_value=0.593
compound="CC1(C)CCC(c2ccc(Cl)cc2)=C(CN2CCN(c3ccc(C(=O)NS(=O)(=O)c4ccc(N[C@H](CCN5CCOCC5)CSc5ccccc5)c(S(=O)(=O)C(F)(F)F)c4)cc3)CC2)C1 [Navitoclax] + CC(=O)Nc1cccc(-n2c(=O)n(C3CC3)c(=O)c3c(Nc4ccc(I)cc4F)n(C)c(=O)c(C)c32)c1 [Trametinib] (partner 0.02 µM)" endpoint_value=0.508
compound="CC1(C)CCC(c2ccc(Cl)cc2)=C(CN2CCN(c3ccc(C(=O)NS(=O)(=O)c4ccc(N[C@H](CCN5CCOCC5)CSc5ccccc5)c(S(=O)(=O)C(F)(F)F)c4)cc3)CC2)C1 [Navitoclax] + CS(=O)(=O)CCNCc1ccc(-c2ccc3ncnc(Nc4ccc(OCc5cccc(F)c5)c(Cl)c4)c3c2)o1 [Lapatinib] (partner 2 µM)" endpoint_value=0.756
compound="CC1(C)CCC(c2ccc(Cl)cc2)=C(CN2CCN(c3ccc(C(=O)NS(=O)(=O)c4ccc(N[C@H](CCN5CCOCC5)CSc5ccccc5)c(S(=O)(=O)C(F)(F)F)c4)cc3)CC2)C1 [Navitoclax] + NC(=O)Nc1cc(-c2cccc(F)c2)sc1C(=O)N[C@H]1CCCNC1 [AZD7762] (partner 0.2 µM)" endpoint_value=0.552
compound="CC1(C)CCC(c2ccc(Cl)cc2)=C(CN2CCN(c3ccc(C(=O)NS(=O)(=O)c4ccc(N[C@H](CCN5CCOCC5)CSc5ccccc5)c(S(=O)(=O)C(F)(F)F)c4)cc3)CC2)C1 [Navitoclax] + Nc1ncn([C@H]2C[C@H](O)[C@@H](CO)O2)c(=O)n1 [Decitabine] (partner 2 µM)" endpoint_value=0.62
compound="CC1(C)CCC(c2ccc(Cl)cc2)=C(CN2CCN(c3ccc(C(=O)NS(=O)(=O)c4ccc(N[C@H](CCN5CCOCC5)CSc5ccccc5)c(S(=O)(=O)C(F)(F)F)c4)cc3)CC2)C1 [Navitoclax] + Cc1nc(Nc2ncc(C(=O)Nc3c(C)cccc3Cl)s2)cc(N2CCN(CCO)CC2)n1 [Dasatinib] (partner 0.075 µM)" endpoint_value=0.467

----------
Measured relative viability by item
System: PC-14
protocol description: relative viability (nuclei count vs DMSO), 5 days (fraction); higher = more cells survive
conditions: first compound 8 µM
endpoint label: relative viability

molecule="C=C1C(=O)O[C@@H](CCCCCCCC)[C@@H]1C(=O)O [C-75] + Cc1nc(NC(=O)N2CCC[C@H]2C(N)=O)sc1-c1ccnc(C(C)(C)C(F)(F)F)c1 [Alpelisib] (partner 2 µM)" test_target=PC-14 endpoint_value=1.01
molecule="C=C1C(=O)O[C@@H](CCCCCCCC)[C@@H]1C(=O)O [C-75] + Nc1ncn([C@H]2C[C@H](O)[C@@H](CO)O2)c(=O)n1 [Decitabine] (partner 2 µM)" test_target=PC-14 endpoint_value=0.168
molecule="C=C1C(=O)O[C@@H](CCCCCCCC)[C@@H]1C(=O)O [C-75] + O=C(CCCCCCC(=O)Nc1ccccc1)NO [Vorinostat] (partner 1 µM)" test_target=PC-14 endpoint_value=0.717
molecule="C=C1C(=O)O[C@@H](CCCCCCCC)[C@@H]1C(=O)O [C-75] + CC1(C)CCC(c2ccc(Cl)cc2)=C(CN2CCN(c3ccc(C(=O)NS(=O)(=O)c4ccc(N[C@H](CCN5CCOCC5)CSc5ccccc5)c(S(=O)(=O)C(F)(F)F)c4)cc3)CC2)C1 [Navitoclax] (partner 0.5 µM)" test_target=PC-14 endpoint_value=0.978
molecule="C=C1C(=O)O[C@@H](CCCCCCCC)[C@@H]1C(=O)O [C-75] + C[C@@H](Oc1cc(-c2cnn(C3CCNCC3)c2)cnc1N)c1c(Cl)ccc(F)c1Cl [Crizotinib] (partner 1 µM)" test_target=PC-14 endpoint_value=0.998

----------
Tested on: NCI-H23
protocol description: relative viability (nuclei count vs DMSO), 5 days (fraction); higher = more cells survive
conditions: first compound 0.8 µM
Threshold 0.6: relative viability strictly smaller gives 1 (yes), otherwise 0 (no).

compound="C=C1C(=O)O[C@@H](CCCCCCCC)[C@@H]1C(=O)O [C-75] + COc1cc2c(Oc3ccc(NC(=O)C4(C(=O)Nc5ccc(F)cc5)CC4)cc3F)ccnc2cc1OCCCN1CCOCC1 [Foretinib] (partner 0.25 µM)" test_target=NCI-H23 assigned_label="0 (no)"
compound="C=C1C(=O)O[C@@H](CCCCCCCC)[C@@H]1C(=O)O [C-75] + CC(C)C[C@H](NC(=O)[C@H](Cc1ccccc1)NC(=O)c1cnccn1)B(O)O [Bortezomib] (partner 0.002 µM)" test_target=NCI-H23 assigned_label="0 (no)"
compound="C=C1C(=O)O[C@@H](CCCCCCCC)[C@@H]1C(=O)O [C-75] + Cc1cc(Nc2cc(N3CCN(C)CC3)nc(Sc3ccc(NC(=O)C4CC4)cc3)n2)n[nH]1 [Tozasertib] (partner 0.1 µM)" test_target=NCI-H23 assigned_label="1 (yes)"
compound="Oc1nc(-c2ccc(C(F)(F)F)cc2)nc2c1CSCC2 [XAV939] + C[C@]1(O)C[C@@H](c2nc(-c3ccc4ccc(-c5ccccc5)nc4c3)c3c(N)nccn32)C1 [Linsitinib] (partner 1 µM)" test_target=NCI-H23 assigned_label="0 (no)"
compound="C=C1C(=O)O[C@@H](CCCCCCCC)[C@@H]1C(=O)O [C-75] + Cc1nc(Nc2ncc(C(=O)Nc3c(C)cccc3Cl)s2)cc(N2CCN(CCO)CC2)n1 [Dasatinib] (partner 0.075 µM)" test_target=NCI-H23 assigned_label="0 (no)"

----------
Measured relative viability by item
Tested on: NCI-H650
protocol description: relative viability (nuclei count vs DMSO), 5 days (fraction); higher = more cells survive
conditions: first compound 0.05 µM
endpoint label: relative viability

molecule="CC1(C)CCC(c2ccc(Cl)cc2)=C(CN2CCN(c3ccc(C(=O)NS(=O)(=O)c4ccc(N[C@H](CCN5CCOCC5)CSc5ccccc5)c(S(=O)(=O)C(F)(F)F)c4)cc3)CC2)C1 [Navitoclax] + Nc1ncn([C@H]2C[C@H](O)[C@@H](CO)O2)c(=O)n1 [Decitabine] (partner 2 µM)" endpoint_label="relative viability" endpoint_value=0.32
molecule="CC1(C)CCC(c2ccc(Cl)cc2)=C(CN2CCN(c3ccc(C(=O)NS(=O)(=O)c4ccc(N[C@H](CCN5CCOCC5)CSc5ccccc5)c(S(=O)(=O)C(F)(F)F)c4)cc3)CC2)C1 [Navitoclax] + N=C(N)NC(=N)NCCc1ccccc1 [Phenformin] (partner 250 µM)" endpoint_label="relative viability" endpoint_value=0.456
molecule="CC1(C)CCC(c2ccc(Cl)cc2)=C(CN2CCN(c3ccc(C(=O)NS(=O)(=O)c4ccc(N[C@H](CCN5CCOCC5)CSc5ccccc5)c(S(=O)(=O)C(F)(F)F)c4)cc3)CC2)C1 [Navitoclax] + Cc1cc(Nc2cc(N3CCN(C)CC3)nc(Sc3ccc(NC(=O)C4CC4)cc3)n2)n[nH]1 [Tozasertib] (partner 0.1 µM)" endpoint_label="relative viability" endpoint_value=0.781
molecule="CC1(C)CCC(c2ccc(Cl)cc2)=C(CN2CCN(c3ccc(C(=O)NS(=O)(=O)c4ccc(N[C@H](CCN5CCOCC5)CSc5ccccc5)c(S(=O)(=O)C(F)(F)F)c4)cc3)CC2)C1 [Navitoclax] + Cc1nc(Nc2ncc(C(=O)Nc3c(C)cccc3Cl)s2)cc(N2CCN(CCO)CC2)n1 [Dasatinib] (partner 0.075 µM)" endpoint_label="relative viability" endpoint_value=0.463
molecule="CC1(C)CCC(c2ccc(Cl)cc2)=C(CN2CCN(c3ccc(C(=O)NS(=O)(=O)c4ccc(N[C@H](CCN5CCOCC5)CSc5ccccc5)c(S(=O)(=O)C(F)(F)F)c4)cc3)CC2)C1 [Navitoclax] + O=C(c1cc(Cc2n[nH]c(=O)c3ccccc23)ccc1F)N1CCN(C(=O)C2CC2)CC1 [Olaparib] (partner 8 µM)" endpoint_label="relative viability" endpoint_value=0.35
molecule="CC1(C)CCC(c2ccc(Cl)cc2)=C(CN2CCN(c3ccc(C(=O)NS(=O)(=O)c4ccc(N[C@H](CCN5CCOCC5)CSc5ccccc5)c(S(=O)(=O)C(F)(F)F)c4)cc3)CC2)C1 [Navitoclax] + Cc1nc(NC(=O)N2CCC[C@H]2C(N)=O)sc1-c1ccnc(C(C)(C)C(F)(F)F)c1 [Alpelisib] (partner 2 µM)" endpoint_label="relative viability" endpoint_value=1.15
molecule="CC1(C)CCC(c2ccc(Cl)cc2)=C(CN2CCN(c3ccc(C(=O)NS(=O)(=O)c4ccc(N[C@H](CCN5CCOCC5)CSc5ccccc5)c(S(=O)(=O)C(F)(F)F)c4)cc3)CC2)C1 [Navitoclax] + Nc1nc2[nH]cc(CCc3ccc(C(=O)N[C@@H](CCC(=O)O)C(=O)O)cc3)c2c(=O)[nH]1 [Pemetrexed] (partner 0.2 µM)" endpoint_label="relative viability" endpoint_value=0.908
molecule="CC1(C)CCC(c2ccc(Cl)cc2)=C(CN2CCN(c3ccc(C(=O)NS(=O)(=O)c4ccc(N[C@H](CCN5CCOCC5)CSc5ccccc5)c(S(=O)(=O)C(F)(F)F)c4)cc3)CC2)C1 [Navitoclax] + C[C@]1(O)C[C@@H](c2nc(-c3ccc4ccc(-c5ccccc5)nc4c3)c3c(N)nccn32)C1 [Linsitinib] (partner 1 µM)" endpoint_label="relative viability" endpoint_value=0.97
molecule="CC1(C)CCC(c2ccc(Cl)cc2)=C(CN2CCN(c3ccc(C(=O)NS(=O)(=O)c4ccc(N[C@H](CCN5CCOCC5)CSc5ccccc5)c(S(=O)(=O)C(F)(F)F)c4)cc3)CC2)C1 [Navitoclax] + CS(=O)(=O)CCNCc1ccc(-c2ccc3ncnc(Nc4ccc(OCc5cccc(F)c5)c(Cl)c4)c3c2)o1 [Lapatinib] (partner 2 µM)" endpoint_label="relative viability" endpoint_value=1.07
molecule="CC1(C)CCC(c2ccc(Cl)cc2)=C(CN2CCN(c3ccc(C(=O)NS(=O)(=O)c4ccc(N[C@H](CCN5CCOCC5)CSc5ccccc5)c(S(=O)(=O)C(F)(F)F)c4)cc3)CC2)C1 [Navitoclax] + CS(=O)(=O)N1CCN(Cc2cc3nc(-c4cccc5[nH]ncc45)nc(N4CCOCC4)c3s2)CC1 [Pictilisib] (partner 1 µM)" endpoint_label="relative viability" endpoint_value=0.869
